# Test system: TK-10 renal
# ASSAY COMMENT: NCI tumour cell line growth inhibition, 48 h; in the data active = GI50 below about 0.43 µM; inactive = the rest
Respond only with the outcome that fits, drawn from active, inactive

// below: answered molecules
CC1=C2[C@@H](CC1)[C@]1(C)O[C@@](C(C)C)(C[C@H]1OC(=O)CO)[C@H]2OC(=O)C1CC1c1ccccc1 (stereo partly drawn) ... inactive
COc1ncc(Nc2ncc([C@@H](C)N3CCN(S(C)(=O)=O)CC3)cc2-c2nc(C)nc(N)n2)cc1F ... active
CC1=C(SCCC(=O)OC(C[Se]C2=C(C)C(=O)c3ccccc3C2=O)C(=O)NCCCCCC(=O)OCc2ccccc2)C(=O)c2ccccc2C1=O (stereo not drawn) ... inactive
COc1ccc2c(c1)c(-c1nc(-c3c[nH]c4ccncc34)cs1)cn2C ... inactive
CCOC(=O)c1cc2c(cc1Cl)SC(=Nc1ccccc1)N(S(=O)(=O)c1ccc(Cl)cc1)S2(=O)=O ... inactive
COc1ccc(-c2nc(-c3ccc(C)cc3)cn3ccnc23)cc1 ... inactive

QUERY: Which outcome was assigned to "Cc1ccccc1NC(=O)c1sc2nc(C)c(C(=O)/C=C/c3ccccc3)cc2c1N" in this test?
RESULT: inactive

QUERY: // return assay outcome for "CCN(CC)CCCNc1cc(OC)cc2nc3cc(Cl)ccc3nc12"
RESULT: inactive

---

# key: entry, value: GI50
# System: LOX IMVI melanoma
# ASSAY COMMENT: NCI tumour cell line growth inhibition, 48 h

C[CH2][Ge]([CH2]C)([CH2]C)[O]C(=O)C(OC(C)=O)c1ccccc1 (centres undefined) ... > 100 µM
CNC(=O)c1c(NC(=O)c2ccc(C(C)(C)C)cc2)sc2c(CN(C)C)c(O)ccc12 ... 1.13 µM
CC1=C(SCCC(=O)OC(C[Se]C2=C(C)C(=O)c3ccccc3C2=O)C(=O)NCCCCCC(=O)OCc2ccccc2)C(=O)c2ccccc2C1=O (centres undefined) ... 2.75 µM

Next compound, please.
QUERY: Which GI50 is listed for "Cc1cc2c(cc1Cl)S/C(=C/C(=O)O)C(Nc1ccc3ncsc3c1)=NS2(=O)=O" ?
RESULT: 22.4 µM

---

// values below are reported TGI
# Test system: M14 melanoma
# ASSAY COMMENT: NCI tumour cell line growth inhibition, 48 h
Please reply with the bare figure in µM and do not write the unit itself.

COc1ccc2c3c([nH]c2c1[N+](=O)[O-])C(C)N(Cc1ccccc1)CC3 (configuration not stated) ... 28.1
OCCN(/N=C\c1ccc2ccccc2c1)C1=NCCN1 ... 35
COc1cc2c(c(O)c1OC)CC1CCC(=O)N1C2c1cccc2ccccc12 (configuration not stated) ... 33.8

Now let's try a different one.
QUERY: Record COc1c2c(c3ccccc3c1O)C1C=CC2C1 (configuration not stated) : what is its TGI with M14 melanoma?
RESULT: 27.9

---

# Tested on: RPMI-8226 leukemia
# ASSAY COMMENT: NCI tumour cell line growth inhibition, 48 h
VALUE KIND: TGI (µM)
Expressed in µM, but write only the number.

Consider the reported TGI for these molecules:
NC(=O)c1cc([N+](=O)[O-])c(Cl)c([N+](=O)[O-])c1Cl ... 3.61
C=C/C=C/[C@@H](O)CC(=C)C[C@H]1OC2[C@H](C)[C@@H](OC(=O)C[C@H]3C[C@H](OC(C)=O)C[C@@]4(C[C@@](C)(O)C[C@H](CC(=C)[C@@H](C)[C@H](OC(C)=O)[C@H](C)C(=O)C[C@@H]5C[C@H](OC)CC6(C[C@@H](O)C[C@H](/C=C\CCC[C@H]7O[C@](O)(C=C[C@H]7C)[C@H]2O)O6)O5)O4)O3)[C@@H]1O ... 0.0821
CCOC(=O)c1cc2c(cc1Cl)SC(=Nc1ccccc1)N(S(=O)(=O)c1ccc(Cl)cc1)S2(=O)=O ... 19.4
COC12C=C/C(=C(/C(=O)OCc3ccccn3)C(=O)CCCCCCCCC3(OC)C=C/C(=C(/C(=O)OCc4ccccn4)C(=O)CCCCCCCC1)O3)O2 ... 1.85
CCOC(=O)C(NC(=O)c1ccccc1)(N1CCN(c2cc3c(cc2F)c(=O)c(C(=O)O)cn3CC)CC1)C(F)(F)F (configuration not stated) ... 69

QUERY: API: value(readout=TGI, system=RPMI-8226 leukemia) for record c1ccc(C2OC3(CCC[C@H]4C[C@H]43)O[C@H]2c2ccccc2)cc1 (some centres not stated)
RESULT: 96.9

QUERY: I'm curious: which TGI was measured for "O=S(=O)(NNc1ccccc1)c1ccccc1" tested on RPMI-8226 leukemia?
RESULT: 46.4

QUERY: Tell me reported TGI for "CCCCCCCCCCCCCC[N+](C)(C)CCCCCCCCCCCCCC" , tested with RPMI-8226 leukemia.
RESULT: 4.44

QUERY: Find TGI (RPMI-8226 leukemia) for the entry "COc1cccc(CC(C)=C(c2ccc(OCCN3CCCCC3)cc2)c2ccc(OCCN3CCCCC3)cc2)c1"
RESULT: 4.41

QUERY: Give TGI (RPMI-8226 leukemia) of the following molecule: "CCOCCCn1c2c(c3c(O)cccc31)C(=O)c1ccccc1-2"
RESULT: 43.9

---

# Tested on: SR leukemia
# ASSAY COMMENT: NCI tumour cell line growth inhibition, 48 h
VALUE KIND: TGI

CC(C)(C)c1ccc(Oc2ccc(N)cn2)cc1 ... > 100 µM
CCOC(=O)c1nc2ccc(C(F)(F)F)cc2nc1Nc1ccc(Cl)c(Cl)c1 ... > 100 µM
Nc1nc(Cl)cc(NC2(CO)CCC2)n1 ... > 100 µM

QUERY: Please report the recorded TGI for NC(CCOCCP(=O)(O)O)C(=O)O (stereo not given) .
RESULT: > 100 µM

QUERY: Could you share which TGI value was measured for "C=C/C=C/[C@@H](O)CC(=C)C[C@H]1OC2[C@H](C)[C@@H](OC(=O)C[C@H]3C[C@H](OC(C)=O)C[C@@]4(C[C@@](C)(O)C[C@H](CC(=C)[C@@H](C)[C@H](OC(C)=O)[C@H](C)C(=O)C[C@@H]5C[C@H](OC)CC6(C[C@@H](O)C[C@H](/C=C\CCC[C@H]7O[C@](O)(C=C[C@H]7C)[C@H]2O)O6)O5)O4)O3)[C@@H]1O" ?
RESULT: > 25 µM

QUERY: What does the data say about its TGI? Entry: "C[C@]12CC[C@H]3[C@@H](CC=C4C[C@@H](N5CCCC5)CC[C@@]43C)[C@@H]1C/C(=C\c1cccc(OCCN3CCOCC3)c1)[C@@H]2O"
RESULT: > 100 µM

QUERY: Any idea what its TGI is? The molecule is "O=C(CCC=C(S(=O)(=O)c1ccccc1)S(=O)(=O)c1ccccc1)c1ccccc1"
RESULT: 82.6 µM

QUERY: Item "COc1ccc2c3c([nH]c2c1)CCN(CCCC(=O)c1ccc(F)cc1)C3" has what recorded TGI?
RESULT: 36.6 µM

QUERY: May I ask what TGI has been recorded for "Cn1cc(-c2ccc3cc(-c4ccc(CC(=O)Nc5cc(C(C)(C)C)on5)cc4)cnc3c2)cn1" ?
RESULT: > 100 µM

QUERY: Which TGI value belongs to "CCOC(=O)NC(OC)(C(F)(F)F)C(F)(F)F" ?
RESULT: > 100 µM

QUERY: Which TGI value is on record for "COCN1COCN=C1NC#N" ?
RESULT: > 100 µM

QUERY: Which TGI is listed for COC1=CC(=O)CC(C)C12Oc1c(Cl)c(OC)cc(OC)c1C2=O (stereo not given) ?
RESULT: > 28.2 µM

---

Catalogue of TGI readings, one per entry.
# Tested on: PC-3 prostate
# ASSAY COMMENT: NCI tumour cell line growth inhibition, 48 h

COc1ccc(/C(COc2ccc3oc(-c4ccccc4)cc(=O)c3c2)=N\O)cc1 ... > 19.2 µM
CCN(Cc1ccccc1)C1CCN(Cc2cc(Br)ccc2O)CC1 ... > 100 µM
COc1cc2c3c(n(C)c(=O)c2cc1OC)-c1cc2c(cc1/C3=C\CCCI)OCO2 ... > 100 µM

Turning now to a further molecule:
QUERY: Entry "Cc1nc(C)c(N2CCNCC2)c(=O)[nH]1" : reported TGI = ?
RESULT: > 100 µM

---

This listing pairs molecules with measured TGI.
# Test system: SK-MEL-5 melanoma
# ASSAY COMMENT: NCI tumour cell line growth inhibition, 48 h
Give just the number in µM; leave the unit off.

CC1CC/C(=C\c2ccc(F)cc2)C(=O)/C1=C/c1ccc(F)cc1 (stereo not given) ... 24.1
O=C1C(c2ccc(Br)cc2)=[N+]([O-])c2ccccc21 ... 21.6

Now look at this one.
QUERY: Sample "CC(C)=CCc1[nH]c2ccccc2c1C1=C(O)C(=O)C(c2c(CC=C(C)C)[nH]c3ccccc23)=C(O)C1=O" — what was its TGI?
RESULT: 4.12
